Record form. Attribute: Tau proteins/fragments with positive scAb reactivity. Fill in for each entry.
Test system: hT40, dGA, dGAE and truncated tau fragments
test name: Binding ELISA / epitope mapping of anti-tau scAbs with truncated tau proteins and 13mer peptides
Set-up: species or system human
test context: Table 15; binding ELISA; residue numbers of hT40

Sample answers from the record:
Q: Query: Tau proteins/fragments with positive scAb reactivity; subject: E2E8: dGAE (391E) specific clone, Table 9; SEQ ID NO: 248 (protein, E2E8 amino acid sequence) scFv: QVQLQESGPSLVKPSQTLSLTCTVSGFSLTDRGVAWVRQAPGKALEWVGTMRSGGTIDYNPALKSRLSITRDTSKSQVFLSLSSVTTEDMAMYYCARGYLSGDRYAWGRGLLVTVSSEGKSSGASGESKVDDQAVLTQPSSVSKSLGQSVSIACSGSRSDIGYGNYVSWFQQIPGSAPKLLIYDTNTRASGVPDRFSGARSGNTATLTINSLQAEDEADYYCANIDSSRSHLFGSGTRLTVLG
Ans: 297-391 (dGAE)

Q: Query: Tau proteins/fragments with positive scAb reactivity; subject: CE2: anti-tau core clone, Table 10; SEQ ID NO: 366 (protein, CE2/E1B8 amino acid sequence) scFv: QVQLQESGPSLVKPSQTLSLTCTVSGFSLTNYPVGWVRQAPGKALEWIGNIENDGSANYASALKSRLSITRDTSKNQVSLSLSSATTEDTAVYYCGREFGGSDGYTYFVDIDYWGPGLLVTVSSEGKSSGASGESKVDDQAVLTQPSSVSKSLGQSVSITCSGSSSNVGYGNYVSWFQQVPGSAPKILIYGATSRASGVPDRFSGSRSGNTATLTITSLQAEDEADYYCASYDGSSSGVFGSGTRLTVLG
Ans: 297-390 (dGA), 297-391 (dGAE), 313-336

The following molecules each have a reported value; give each one's Tau proteins/fragments with positive scAb reactivity.
1. E2B7: dGAE (391E) specific clone, Table 9; SEQ ID NO: 254 (protein, E2B7 amino acid sequence) scFv: QVQLQESGPSLVKPSQTLSLTCTVSGFSLTSWGVAWVRQAPGKALEWLGTMRSGGGTEYNPALKSRLSITRDTSKSQVSLSLSSVTTEDMAMYYCARGYLSGIHYAWGRGLLVSVSSEGKSSGASGESKVDDQAVLTQLSSVSGSLGQRVSITCSGSSSNVGDGDYVGWFQQLPGSAPKLLIYSARNRASGVPDRFSGSRSGNTATLTITSLQAEDEADYYCASIDTSRSHIFGSGTRLTVLG
2. E1E8: dGAE (391E) specific clone, Table 9; SEQ ID NO: 250 (protein, E1E8 amino acid sequence) scFv: QVQLQESGPSLVKPSQTLSLTCTVSGFSLTDWGVAWVRQAPGKALEWLGTMRSGGTTDDNPALKSRLSITRDTSKSQVSLSLSSVTTEDMAMYYCARGYLSGVHYAWGRGLLVTVSSEGKSSGASGESKVDDQAVLTQPSSVSGSLGQSVSITCSGSSSNVGDGRYVSWFQQVPGSAPKLLIYDTTSRASGVPDRFSGSRSGNTATLIITSLQAEDEADYYCASIDSGNNLLFGSGTRLTVLG

Ans:
["297-391 (dGAE)", "297-391 (dGAE)"]
